# EXPERIMENTAL SYSTEM: furin, P09958;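 further: purified furin at 1:10 enzyme:substrate in 50 mM HEPES pH 7.5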
# Sequence (P09958 whole entry): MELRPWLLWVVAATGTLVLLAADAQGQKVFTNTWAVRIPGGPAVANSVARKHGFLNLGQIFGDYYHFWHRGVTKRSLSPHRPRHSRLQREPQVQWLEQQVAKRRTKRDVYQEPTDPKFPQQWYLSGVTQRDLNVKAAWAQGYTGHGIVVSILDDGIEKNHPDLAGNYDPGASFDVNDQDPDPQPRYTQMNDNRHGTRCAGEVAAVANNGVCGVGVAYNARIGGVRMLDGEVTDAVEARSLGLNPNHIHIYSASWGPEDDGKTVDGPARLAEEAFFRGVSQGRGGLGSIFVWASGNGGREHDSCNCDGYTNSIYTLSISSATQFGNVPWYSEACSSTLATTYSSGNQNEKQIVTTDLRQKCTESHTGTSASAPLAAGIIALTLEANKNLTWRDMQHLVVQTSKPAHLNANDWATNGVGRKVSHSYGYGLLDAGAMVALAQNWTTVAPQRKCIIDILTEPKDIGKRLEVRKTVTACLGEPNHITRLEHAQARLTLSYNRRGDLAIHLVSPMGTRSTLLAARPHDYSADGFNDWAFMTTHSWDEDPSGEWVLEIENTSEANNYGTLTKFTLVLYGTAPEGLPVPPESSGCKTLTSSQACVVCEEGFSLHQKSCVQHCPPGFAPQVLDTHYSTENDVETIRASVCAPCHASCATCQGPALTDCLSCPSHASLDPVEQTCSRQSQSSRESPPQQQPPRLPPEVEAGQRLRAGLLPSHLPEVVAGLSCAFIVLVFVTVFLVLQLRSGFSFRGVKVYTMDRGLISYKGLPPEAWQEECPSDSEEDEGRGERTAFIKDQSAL
# ASSAY OVERVIEW: furin cleavage Z-score vs untreated control; higher = more cleavage, active = 3.5 or more, inactive = 1 or less, 8 variable residues between constant flanks
# DETAILS: 15 min
Some of the results follow. The hit rate among all sequences tested is not known here.
This section presents sequences with their documented furin cleavage Z-score values.
READOUT: furin cleavage Z-score

MACROMOLECULE SEQUENCE	READOUT	MEASURED VALUE
CACGNTLTCYAGNASASA [HC1515]	furin cleavage Z-score	-2.28
CANVSVAHDGAGNASASA [HC1555]	furin cleavage Z-score	-0.558
CARRKRRAPLAGNASASA [FS-2594]	furin cleavage Z-score	6.31
CARYHRDAGAAGNASASA [FS-1809]	furin cleavage Z-score	1.22
CARYARWAGAAGNASASA [FS-1808]	furin cleavage Z-score	3.55
CASQPCSAHLAGNASASA [HC2502]	furin cleavage Z-score	0.435
CARYARKIEPAGNASASA [FS-2847]	furin cleavage Z-score	1.98
